The measured values listed here are drawn from patent US11111232B2.

What IC50 was measured for each of the following?
target: IDO1 (Homo sapiens, UniProt P14902); experiment: IDO1 human whole blood assay; type: cell-based; design: Human whole blood was drawn in sodium heparin coated tubes from healthy internal donors; from tissue; host or cells: human whole blood from healthy donors, stimulated with LPS and IFNγ; details: LPS and IFNγ 100 ng/mL, 18 h, kynurenine by LC/MS/MS
Sequence (P14902 whole entry): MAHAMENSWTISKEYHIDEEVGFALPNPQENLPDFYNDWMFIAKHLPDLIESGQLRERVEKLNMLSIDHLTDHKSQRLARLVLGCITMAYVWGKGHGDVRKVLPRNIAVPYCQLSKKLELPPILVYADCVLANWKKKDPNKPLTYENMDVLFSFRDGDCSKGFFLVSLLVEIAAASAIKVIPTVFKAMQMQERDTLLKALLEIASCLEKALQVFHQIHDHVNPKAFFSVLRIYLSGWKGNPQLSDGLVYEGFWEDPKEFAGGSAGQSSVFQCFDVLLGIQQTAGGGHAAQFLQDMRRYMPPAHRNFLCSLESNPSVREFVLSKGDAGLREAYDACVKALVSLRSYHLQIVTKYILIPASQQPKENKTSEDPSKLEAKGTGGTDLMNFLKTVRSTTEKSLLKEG
Numbers only, in nM.

[[record]]
compound = "O=C(Nc1ccc(C2(NC(=O)c3ccc(Cl)nc3)CCC2)nc1)c1cc(F)cc(F)c1 [Example 41]"
quantitative_result = 406

[[record]]
compound = "O=C(Nc1ccc(C2(C(=O)Nc3ccc(F)cc3)CCC2)cn1)c1cccc(F)c1 [Example 23]"
quantitative_result = 102

[[record]]
compound = "O=C(Nc1ccc(C2(C(=O)Nc3ccc(F)cc3)CCC2)cn1)C1CCCCC1 [Example 15]"
quantitative_result = 2010


Shift focus to the following entry.
Query string: Name the recorded IC50 for O=C(Nc1ccc(C2(C(=O)Nc3ccc(F)cc3)CCC2)cn1)c1cncc(Cl)c1 [Example 25] .
Result string: 561

###

Target: UniProt P14902
Assay: IDO1 cellular assay in Hela cells stimulated with IFNγ
Assay type: cell-based
Settings: IFNγ 100 ng/mL, 300 uM L-tryptophan, about 48 hours, fluorescence readout
Protocol: IDO1 Cellular Assay in Hela Cells Stimulated with IFNγ Hela cells were cultured in complete Hela culture medium (90% EMEM, 10% heat-inactivated fetal bovine serum) and expanded to about 1×10^9 cells. […] Hela cells with and without IFNγ were dispensed to the respective wells of 384-well assay plates containing the compounds. […] The resulting fluorescence was measured in a Spectramax plate reader (Molecular Devices) with a 400 nm excitation filter and a 510 nm emission filter. […]
recorded metric: log10(IC50) (log10 of the value in nM)
Form field - Quantity: IC50; Unit: nM; Scale: log10

Here's what some known entries look like.
[[record]]
molecule = "N#Cc1cncc(C(=O)Nc2ccc(C3(NC(=O)c4ccc(Cl)nc4)CCC3)nc2)c1"
quantitative_result = 3.08

[[record]]
molecule = "N#Cc1cccc(C(=O)Nc2ccc(C3(C(=O)Nc4ccc(F)cc4)CCC3)cn2)c1"
quantitative_result = 0.90

[[record]]
molecule = "O=C(CCC1CC1)Nc1ccc(C2(C(=O)Nc3ccc(F)nc3)CCC2)cn1"
quantitative_result = 2.36


# return log10(IC50) for each item in the list
1. O=C(Nc1ccc(C2(C(=O)Nc3ccc(F)cc3)CCC2)cn1)c1cccc(Cl)c1F
2. O=C(Nc1ccc(C2(C(=O)Nc3ccc(F)nc3)CCC2)cn1)c1cccc(Cl)n1
3. Cc1cc(C(=O)Nc2ccc(C3(NC(=O)c4ccc(Cl)nc4)CCC3)nc2)ccn1

Result string:
1: 3.32; 2: 1.97; 3: 3.03

###

biological target: IDO1 (Homo sapiens, UniProt P14902); assay: IDO1 cellular assay in Hela cells stimulated with IFNγ; assay type: cell-based; conditions: IFNγ 100 ng/mL, 300 uM L-tryptophan, about 48 hours, fluorescence readout
Threshold 60 nM. IC50 below it: T. IC50 at it or above: F.

Answered cases to consult:
[[record]]
compound = "O=C(Nc1ccc(C2(C(=O)Nc3ccc(F)cc3)CCC2)cn1)C1CCC(F)(F)CC1 [Example 9]"
class_assignment = "T"

[[record]]
compound = "O=C(Nc1ccc(C2(NC(=O)c3ccc(Cl)nc3)CCC2)nc1)c1cccc(Cl)c1 [Example 42]"
class_assignment = "T"

[[record]]
compound = "O=C(Nc1ccc(C2(C(=O)Nc3ccc(F)cc3)CCC2)cn1)C1CCCCC1 [Example 15]"
class_assignment = "T"

[[record]]
compound = "O=C(Nc1ccc(C2(C(=O)Nc3ccc(F)cc3)CCC2)cn1)c1cncc(Cl)c1 [Example 25]"
class_assignment = "T"

[[record]]
compound = "O=C(Nc1ccc(C2(C(=O)Nc3ccc(F)cc3)CCC2)cn1)C1CCCOC1 (centres unmarked) [Example 22]"
class_assignment = "F"


Query string: Say whether its IC50 is strictly beneath 60 nM. Entry: O=C(Nc1ccc(C2(C(=O)Nc3ccc(F)cc3)CCC2)cn1)c1cccc(F)c1 [Example 23]
Result string: T

Query string: Criterion: IC50 strictly below 60 nM. Is it met by O=C(Nc1ccc(C2(C(=O)NC3CCC(F)(F)CC3)CCC2)cn1)c1cncc(Cl)c1 [Example 33] ?
Result string: F

Query string: Does this compound meet the criterion IC50 < 60 nM? O=C(Nc1ccc(C2(C(=O)Nc3ccc(F)cc3)CCC2)cn1)c1cc(Cl)ccn1 [Example 26]
Result string: T

###

biological target: IDO1 (Homo sapiens, UniProt P14902); test: IDO1 HEK293 cellular assay; format: cell-based; conditions: HEK293 cells transfected with Flag-IDO1 vector, 20-24 hours, fluorescence readout
recorded metric: IC50
// unit must come after the numeric part

Some solved cases for reference:
[[record]]
compound = "CC(C)CC(=O)Nc1ccc(C2(C(=O)Nc3ccc(F)cc3)CCC2)cn1 [Example 27]"
tgt = "IDO1 (Homo sapiens, UniProt P14902)"
result = "28 nM"

[[record]]
compound = "O=C(Nc1ccc(C2(C(=O)Nc3ccc(F)cc3)CCC2)cn1)C1CCCC(F)(F)C1 (centres unmarked) [Example 17]"
tgt = "IDO1 (Homo sapiens, UniProt P14902)"
result = "26 nM"

[[record]]
compound = "O=C(CC1CC1)Nc1ccc(C2(C(=O)Nc3ccc(F)cc3)CCC2)cn1 [Example 30]"
tgt = "IDO1 (Homo sapiens, UniProt P14902)"
result = "70 nM"

[[record]]
compound = "O=C(Nc1ccc(C2(C(=O)Nc3ccc(F)cc3)CCC2)cn1)C1CCCOC1 (centres unmarked) [Example 22]"
tgt = "IDO1 (Homo sapiens, UniProt P14902)"
result = "123 nM"

[[record]]
compound = "O=C(Nc1ccc(C2(C(=O)Nc3ccc(F)cc3)CCC2)cn1)C1CCCCC1 [Example 15]"
tgt = "IDO1 (Homo sapiens, UniProt P14902)"
result = "7 nM"

[[record]]
compound = "O=C(CCC(F)(F)F)Nc1ccc(C2(C(=O)Nc3ccc(F)cc3)CCC2)cn1 [Example 5]"
tgt = "IDO1 (Homo sapiens, UniProt P14902)"
result = "76 nM"

[[record]]
compound = "O=C(Nc1ccc(C2(C(=O)Nc3ccc(F)cc3)CCC2)cn1)C1CCOCC1 [Example 20]"
tgt = "IDO1 (Homo sapiens, UniProt P14902)"
result = "156 nM"


Shift focus to the following entry.
Query string: Form entry - test system: IDO1 (Homo sapiens, UniProt P14902); read-out: IC50; compound: O=C(CCC1CC1)Nc1ccc(C2(C(=O)Nc3ccc(F)cc3)CCC2)cn1 [Example 18]
Result string: 32 nM

###

target: IDO1 (Homo sapiens); assay: IDO1 human whole blood assay; type: cell-based; design: Human whole blood was drawn in sodium heparin coated tubes from healthy internal donors; from tissue; host or cells: human whole blood from healthy donors, stimulated with LPS and IFNγ; details: LPS and IFNγ 100 ng/mL, 18 h, kynurenine by LC/MS/MS
recorded metric: IC50 (nM)
Answers are plain numbers, in nM.

[[record]]
structure_notation = "O=C(Nc1ccc(C2(NC(=O)c3ccc(Cl)nc3)CCC2)nc1)c1cccc(Cl)c1"
recorded_metric = "IC50"
readout_unit = "nM"
quantitative_result = 696


Hi there! I need IC50 for each item below, if you can.
1. N#Cc1cccc(C(=O)Nc2ccc(C3(C(=O)Nc4ccc(F)cc4)CCC3)cn2)c1
2. O=C(Nc1ccc(C2(C(=O)Nc3ccc(F)cc3)CCC2)cn1)c1cccc(Cl)c1F
3. O=C(Nc1ccc(C2(C(=O)Nc3ccc(F)cc3)CCC2)cn1)c1ccnc(C(F)(F)F)c1

Result string:
[351, 157, 2880]

###

biological target: IDO1 (Homo sapiens); test: IDO1 cellular assay in Hela cells stimulated with IFNγ; assay type: cell-based; settings: IFNγ 100 ng/mL, 300 uM L-tryptophan, about 48 hours, fluorescence readout
pIC50: −log10 of the molar value.
Everything with pIC50 lower than 7 is Not fulfilled; everything else, including exactly 7, is Fulfilled.

[[record]]
structure_notation = "O=C(Nc1ccc(C2(C(=O)Nc3ccc(F)cc3)CCC2)cn1)c1cncc(F)c1"
class_assignment = "Fulfilled"


Query string: Reported pIC50 reaches at least 7 for O=C(Nc1ccc(C2(C(=O)Nc3ccc(F)cc3)CCC2)nc1)c1cccc(Cl)c1 ?
Result string: Fulfilled

Query string: Check this compound for pIC50 at or above 7: O=C(Nc1ccc(C2(NC(=O)c3ccc(Cl)nc3)CCC2)nc1)c1ccnc(Cl)c1
Result string: Not fulfilled

Query string: Tell me whether pIC50 is at least 7 here: O=C(Nc1ccc(C2(C(=O)Nc3ccc(F)cn3)CCC2)nc1)c1cccc(Cl)c1
Result string: Fulfilled

Query string: Does O=C(NC1(c2ccc(NC(=O)c3nccs3)cn2)CCC1)c1ccc(Cl)nc1 have a reported pIC50 of at least 7?
Result string: Not fulfilled

Query string: Does O=C(NC1CCCCC1)c1ccc(C2(C(=O)Nc3ccc(F)cc3)CCC2)cn1 have a reported pIC50 of at least 7?
Result string: Not fulfilled
